# target-under-test: T1, recombinant human CXCL11/I-TAC (human, UniProt O14625 22-94, biotinylated in the ELISA; 125I label in the radioligand assays)
# T1 sequence (looked up): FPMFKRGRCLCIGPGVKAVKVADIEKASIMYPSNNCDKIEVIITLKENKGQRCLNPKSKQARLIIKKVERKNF
# assay-summary: inhibition of 125I-CXCL11 binding to hCXCR3 (HEK293T cells), 10x diluted periplasm; ELISA grade at the label
reported-endpoint: binding result

# binder, result
data = [
    ("Nanobody 11A3 (VHH, llama VHH against CXCL11; not shown: C-terminal c-myc tag and (His)6 tag coded by the vector) VHH: EVQLVESGGGLVQAGGSLRLSCAASGFSFDDYVIGWFRQAPGKEREGVSLISSSDGSTYYADSVKGRFTISSDNAKNTVYLQMNSLKPEDTAVYYCAAGNGLLRLWMFHVSAYDYWGQGTQVTVSS", "binds"),
    ("Nanobody 11D2 (VHH, llama VHH against CXCL11; also called 11G1; 11H1; not shown: C-terminal c-myc tag and (His)6 tag coded by the vector) VHH: EVQLVESGGGLVQAGGSLRLSCAASGFSFDDYAIGWFRQAPGKEREGVSLISSSDGSTYYADSVKGRFTISSDNAKNTVYLQMNSLKPEDTAVYYCAAGQGLLRAQALRWESYDYWGQGTQVTVSS", "binds"),
    ("Nanobody 11G2 (VHH, llama VHH against CXCL11; not shown: C-terminal c-myc tag and (His)6 tag coded by the vector) VHH: EVQLVESGGGLVQAGGSLRLSCAASGFTFDDYAIGWFRQAPGKEREGVSWISSSDGSTYYADSVKGRFTISSDNAKNTVYLQMNSLKPEDTAVYYCAAGAGFLITTIWTTQMYDYWGQGTQVTVSS", "binds"),
]
